protein stability index reference
B1: TIA1 (parent)
chain: TYECRCIGEEKEMWNFGEKYARF

Variants of: B1
TEST_DETAILS: protein stability index of a GFP-peptide fusion (GPS, HEK-293T) (PSI 1-6); higher = more stable;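 further: lentivirally expressed fusions sorted by FACS into six bins by GFP to DsRed ratio, PSI derived from sequencing read proportions per bin multiplied by bin number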
PARTICULARS: c terminus: native

MUTATION_STRING | protein stability index
E10H | 2.49
F16T | 3

Quick one: protein stability index for Y2F ?
4.21

Next variant: E9N
2.29

Next variant: E9T
1.61

Next variant: E3H
1.8

Next variant: F16I
1.57

Next variant: N15W
2.77

Next variant: W14Y
2.65

Next variant: C6A
2.92

Data credit: the supplement of paper PMC10567573
